Biological target: Glucocorticoid receptor (Homo sapiens) (UniProt P04150)
Sequence (P04150 whole entry): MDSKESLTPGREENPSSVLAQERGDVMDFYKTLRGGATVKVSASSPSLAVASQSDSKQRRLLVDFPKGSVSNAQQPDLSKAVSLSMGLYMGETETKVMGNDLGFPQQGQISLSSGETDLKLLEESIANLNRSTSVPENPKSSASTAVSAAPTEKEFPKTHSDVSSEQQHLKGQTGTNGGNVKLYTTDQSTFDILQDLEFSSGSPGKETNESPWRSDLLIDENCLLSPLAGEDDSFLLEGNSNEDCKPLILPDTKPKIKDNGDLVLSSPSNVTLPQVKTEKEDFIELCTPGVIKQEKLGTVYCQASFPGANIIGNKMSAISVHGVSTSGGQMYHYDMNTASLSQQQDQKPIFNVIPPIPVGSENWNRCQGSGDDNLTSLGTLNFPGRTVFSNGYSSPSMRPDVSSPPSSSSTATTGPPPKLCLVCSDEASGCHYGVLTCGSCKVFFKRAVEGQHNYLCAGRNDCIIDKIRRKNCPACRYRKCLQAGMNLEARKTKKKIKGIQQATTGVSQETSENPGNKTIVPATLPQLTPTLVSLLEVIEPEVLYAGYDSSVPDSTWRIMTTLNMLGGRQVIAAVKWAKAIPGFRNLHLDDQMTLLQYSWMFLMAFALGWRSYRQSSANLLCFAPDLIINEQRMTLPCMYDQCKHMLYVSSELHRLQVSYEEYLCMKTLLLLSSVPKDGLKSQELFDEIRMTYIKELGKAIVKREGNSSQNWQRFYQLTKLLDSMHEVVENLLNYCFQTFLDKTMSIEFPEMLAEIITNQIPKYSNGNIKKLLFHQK
Assay: Transrepression activity at glucocorticoid receptor in human A549 cells assessed as inhibition of IL1beta-stimulated NFkappaB-dependent E-selectin transcription by luciferase reporter gene assay relative to dexamethasone
Assay type: cell-based
Each item that follows carries a reported Efficacy.
Respond with the figure and its unit, in that order.

Field: example entries. Status: answers known.
# molecule, Efficacy
measured = [
    ("CCS(=O)(=O)NCC(C)(C)[C@@H](c1ccccc1)c1ccc2c(cnn2-c2ccc(F)cc2)c1", "87%"),
    ("CC(C)(CNS(=O)(=O)CC(F)(F)F)[C@@H](c1ccccc1)c1ccc2c(cnn2-c2ccc(F)cc2)c1", "86%"),
    ("CC(C)C[C@@H](c1ccc2c(cnn2-c2ccc(F)cc2)c1)C(C)(C)CNC(=O)NCC(F)(F)F", "85%"),
    ("CC(C)(C)NC(=O)NCC(C)(C)[C@@H](c1ccccc1)c1ccc2c(cnn2-c2ccc(F)cc2)c1", "65%"),
    ("CCS(=O)(=O)NCC(C)[C@@H](c1ccccc1)c1ccc2c(cnn2-c2ccc(F)cc2)c1 (stereo partly specified)", "100%"),
]

Task item: Using the record for `CC(C)C[C@@H](c1ccc2c(cnn2-c2ccc(F)cc2)c1)C(C)(C)CNC(=O)CC(F)(F)F` , report its Efficacy.
Reply: 96%
